- ASSAY_SYSTEM: T1, HCV Core1-169 (HCV-1, UniProt P26664 1-169)
- T1 construct: also called Solid Phase HCV Core
- T1 sequence: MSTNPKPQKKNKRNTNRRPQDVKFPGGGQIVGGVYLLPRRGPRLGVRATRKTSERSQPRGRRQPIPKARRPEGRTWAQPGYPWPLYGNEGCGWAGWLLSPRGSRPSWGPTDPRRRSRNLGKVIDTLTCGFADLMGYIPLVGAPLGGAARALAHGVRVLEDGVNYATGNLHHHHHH
- EXPERIMENTAL_DETAILS: sandwich EIA, capture 208B-741
Entries and their measured OD492 follow.
ENDPOINT: OD492 (OD)

HCV 208A-557 (antibody, V domains shown) VH: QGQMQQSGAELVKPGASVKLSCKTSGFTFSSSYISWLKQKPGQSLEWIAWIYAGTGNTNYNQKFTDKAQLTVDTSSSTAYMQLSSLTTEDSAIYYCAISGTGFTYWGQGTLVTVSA VL: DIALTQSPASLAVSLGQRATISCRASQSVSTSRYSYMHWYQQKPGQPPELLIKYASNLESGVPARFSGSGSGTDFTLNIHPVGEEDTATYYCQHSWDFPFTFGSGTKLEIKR = 0.38
HCV 208B-612 (antibody, V domains shown) VH: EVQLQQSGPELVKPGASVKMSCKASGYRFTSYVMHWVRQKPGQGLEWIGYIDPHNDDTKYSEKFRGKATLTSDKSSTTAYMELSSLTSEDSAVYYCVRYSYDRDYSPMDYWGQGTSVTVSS VL: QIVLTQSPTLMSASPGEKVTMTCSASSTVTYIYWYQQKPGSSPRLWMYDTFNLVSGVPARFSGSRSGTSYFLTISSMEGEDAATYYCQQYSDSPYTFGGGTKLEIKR = 0.23
HCV 208B-395 (antibody, V domains shown) VH: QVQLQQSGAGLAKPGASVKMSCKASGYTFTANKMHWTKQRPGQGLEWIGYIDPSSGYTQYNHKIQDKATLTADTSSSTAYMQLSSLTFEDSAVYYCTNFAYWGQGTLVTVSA VL: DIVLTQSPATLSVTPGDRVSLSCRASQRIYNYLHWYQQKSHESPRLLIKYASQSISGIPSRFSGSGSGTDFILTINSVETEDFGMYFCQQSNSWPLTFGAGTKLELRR = 0.21
HCV 208A-741 (antibody, V domains shown) VH: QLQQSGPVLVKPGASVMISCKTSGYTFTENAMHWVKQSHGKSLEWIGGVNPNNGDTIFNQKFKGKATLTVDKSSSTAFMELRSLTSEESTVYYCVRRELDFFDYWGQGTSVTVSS VL: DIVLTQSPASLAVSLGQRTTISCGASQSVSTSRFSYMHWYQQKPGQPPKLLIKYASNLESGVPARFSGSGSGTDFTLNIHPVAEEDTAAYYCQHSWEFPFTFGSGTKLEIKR = 0.36
HCV 208A-293 (antibody, V domains shown) VH: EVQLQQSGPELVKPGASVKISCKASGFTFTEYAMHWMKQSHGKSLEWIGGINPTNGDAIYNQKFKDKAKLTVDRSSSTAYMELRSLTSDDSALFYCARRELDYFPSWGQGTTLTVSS VL: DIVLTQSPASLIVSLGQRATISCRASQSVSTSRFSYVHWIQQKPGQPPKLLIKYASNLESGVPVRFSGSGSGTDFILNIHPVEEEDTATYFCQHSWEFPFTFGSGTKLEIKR = 0.5
